# reported MIC; entries follow
Tested on: Haemophilus influenzae RD
experiment description: broth micro-dilution MIC
Assay type: cell-based
run parameters: Haemophilus influenzae RD
Quick reminder: number only, in µg/mL, skip the unit.

Would you please look over these solved cases?
{"compound": "CNC(CC(C)C)C(=O)NC1C(=O)NC(CC(N)=O)C(=O)NC2C(=O)NC3C(=O)NC(C(=O)NC(C(=O)O)c4cc(O)cc(O)c4-c4cc3ccc4O)C(OC3CC(C)(N)C(O)C(C)O3)c3ccc(c(Cl)c3)Oc3cc2cc(c3OC2OC(CO)C(O)C(O)C2OC2CC(C)(NCc3c4ccccc4c(C)c4ccccc34)C(O)C(C)O2)Oc2ccc(cc2Cl)C1O (stereo not drawn)", "unit label": "µg/mL", "MIC": 32}
{"compound": "CNC(CC(C)C)C(=O)NC1C(=O)NC(CC(N)=O)C(=O)NC2C(=O)NC3C(=O)NC(C(=O)NC(C(=O)O)c4cc(O)cc(O)c4-c4cc3ccc4O)C(OC3CC(C)(N)C(O)C(C)O3)c3ccc(c(Cl)c3)Oc3cc2cc(c3OC2OC(CO)C(O)C(O)C2OC2CC(C)(NCCCCCCCCOc3ccc(OC)cc3)C(O)C(C)O2)Oc2ccc(cc2Cl)C1O (stereo not drawn)", "unit label": "µg/mL", "MIC": 32}

API: the following record is the query input.
Entry under test: CNC(CC(C)C)C(=O)NC1C(=O)NC(CC(N)=O)C(=O)NC2C(=O)NC3C(=O)NC(C(=O)NC(C(=O)O)c4cc(O)cc(O)c4-c4cc3ccc4O)C(OC3CC(C)(N)C(O)C(C)O3)c3ccc(c(Cl)c3)Oc3cc2cc(c3OC2OC(CO)C(O)C(O)C2OC2CC(C)(NCCCCCCCCc3ccccc3)C(O)C(C)O2)Oc2ccc(cc2Cl)C1O (stereo not drawn) . Its MIC was 8

---

Form field: mean geometric MIC, Vancomycin Sensitive Strains (one value per entry).
System: vancomycin-susceptible enterococci
experiment description: broth micro-dilution, mean geometric MIC
Assay type: cell-based, Enterococcus faecium and Enterococcus faecalis
run parameters: enterococci, 24-hour incubation
Note: unit µg/mL is implicit; provide only the numeric part.

Some solved cases for reference:
{"compound": "CCc1ccc(-c2ccc(CNC3(C)CC(OC4C(Oc5c6cc7cc5Oc5ccc(cc5Cl)C(OC5CC(C)(N)C(O)C(C)O5)C5NC(=O)C(NC(=O)C7NC(=O)C(CC(N)=O)NC(=O)C(NC(=O)C(CC(C)C)NC)C(O)c7ccc(c(Cl)c7)O6)c6ccc(O)c(c6)-c6c(O)cc(O)cc6C(C(=O)O)NC5=O)OC(CO)C(O)C4O)OC(C)C3O)cc2)cc1 (stereo not drawn)", "unit label": "µg/mL", "quantitative readout": 0.041}
{"compound": "CNC(CC(C)C)C(=O)NC1C(=O)NC(CC(N)=O)C(=O)NC2C(=O)NC3C(=O)NC(C(=O)NC(C(=O)O)c4cc(O)cc(O)c4-c4cc3ccc4O)C(OC3CC(C)(N)C(O)C(C)O3)c3ccc(c(Cl)c3)Oc3cc2cc(c3OC2OC(CO)C(O)C(O)C2OC2CC(C)(NCc3c(OC)ccc4ccccc34)C(O)C(C)O2)Oc2ccc(cc2Cl)C1O (stereo not drawn)", "unit label": "µg/mL", "quantitative readout": 0.38}

Record summary for CC(C)CC(C(=O)NC1C(=O)NC(CC(N)=O)C(=O)NC2C(=O)NC3C(=O)NC(C(=O)NC(C(=O)O)c4cc(O)cc(O)c4-c4cc3ccc4O)C(OC3CC(C)(N)C(O)C(C)O3)c3ccc(c(Cl)c3)Oc3cc2cc(c3OC2OC(CO)C(O)C(O)C2OC2CC(C)(NCc3c4ccccc4cc4ccccc34)C(O)C(C)O2)Oc2ccc(cc2Cl)C1O)N(C)Cc1c2ccccc2cc2ccccc12 (stereo not drawn) : reported mean geometric MIC, Vancomycin Sensitive Strains = 2.3
